# Assay Name: Cytotoxicity test against HCT-8 cells (MTT)
# Type: cell-based
# Conditions Used: human, means ± SD (n = 3), read-out: IC50 (μM) HCT-8 (cytotoxic activity)
# Description: The cytotoxic activities of compounds 1–10 against HCT-8 cells were tested using the MTT colorimetric method. HCT-8 cells were cultivated on DMEM medium at 37 °C and 5% CO2. […] The absorbance was measured using a microplate reader at a wavelength of 570 nm. […] The cell growth assay was repeated three times, and the IC50 values were calculated using Microsoft Excel software.
Measure Name: IC50 at 24 h

Recorded IC50 at 24 h, per entry:
CC(=O)c1ccc2c(c1)CC[C@H]1[C@@](C)(C(=O)O)CCC[C@]21C; > 50 µM
COc1cccc2c1C(=O)c1c(O)c3c(c(O)c1C2=O)C[C@@](O)(C(=O)CO)C[C@@H]3O[C@H]1C[C@H](N)[C@H](O)[C@H](C)O1 [Adriamycin, reference compound]; 1.78 µM

// query Please give the documented IC50 at 24 h of CC(C)c1ccc2c(c1)CC[C@@H]1[C@](C)(CCC[C@]1(C)C(=O)O)O2
// result > 50 µM

* * *

# Assay Name: Cytotoxicity test against HCT-8 cells (MTT)
# Format: cell-based
# Conditions Used: human, means ± SD (n = 3), read-out: IC50 (μM) HCT-8 (cytotoxic activity)
Measure Name: IC50 at 24 h

Some solved entries appear below for comparison.
C=C1[C@@H]2C[C@H](O)c3cc(C(C)C)ccc3[C@@]2(C)CC[C@@]1(C)O [Compound 4, nepetabrate D]; 41.4 µM
CC(=O)O[C@H]1CCC(C)(C)[C@@H]2CCc3cc(C(C)C)ccc3[C@@]12CO [Compound 1, nepetabrate A]; > 50 µM
CC1CC(=O)OCCNC1=O (stereo not shown); > 50 µM
CC(C)(O)c1ccc2c(c1)CC[C@H]1[C@@](C)(C(=O)O)CCC[C@]21C; > 50 µM
CC1=C(CO)[C@@H]2C[C@H](O)c3cc(C(C)C)ccc3[C@@]2(C)CC1 [Compound 3, nepetabrate C]; > 50 µM

// query Item CC(C)c1ccc2c(c1)[C@@H](O)C[C@H]1[C@@](C)(C(=O)O)CCC[C@]21C [Compound 7, 7a-hydroxycallitrisic acid] : provide IC50 at 24 h
// result > 50 µM

// query Look up and report measured IC50 at 24 h for this entry: CC(C)c1ccc2c(c1)[C@@H](O)C[C@H]1[C@@](C)(C=O)CCC[C@]21C [Compound 2, nepetabrate B]
// result 36.3 µM
